Biological target: Human α4β2 (Homo sapiens, UniProt P17787+P43681)
Sequence (P43681 29-627 limits assumed): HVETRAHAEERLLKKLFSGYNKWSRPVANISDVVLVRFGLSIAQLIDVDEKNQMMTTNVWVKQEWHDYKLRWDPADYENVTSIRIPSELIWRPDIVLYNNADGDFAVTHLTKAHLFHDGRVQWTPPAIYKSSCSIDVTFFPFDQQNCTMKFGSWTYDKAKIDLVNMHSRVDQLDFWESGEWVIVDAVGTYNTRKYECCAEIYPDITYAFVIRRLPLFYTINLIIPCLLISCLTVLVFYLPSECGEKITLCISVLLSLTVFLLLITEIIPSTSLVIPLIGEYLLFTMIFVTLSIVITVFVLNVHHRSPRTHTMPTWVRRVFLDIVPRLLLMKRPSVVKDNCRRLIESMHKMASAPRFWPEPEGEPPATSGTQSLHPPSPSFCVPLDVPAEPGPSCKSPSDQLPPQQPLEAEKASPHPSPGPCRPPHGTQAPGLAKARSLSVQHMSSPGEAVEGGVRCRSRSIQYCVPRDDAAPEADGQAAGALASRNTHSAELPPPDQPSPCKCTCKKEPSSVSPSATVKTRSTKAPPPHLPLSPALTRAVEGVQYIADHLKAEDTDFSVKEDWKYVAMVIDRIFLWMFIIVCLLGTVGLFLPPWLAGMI
Sequence (P17787 26-502): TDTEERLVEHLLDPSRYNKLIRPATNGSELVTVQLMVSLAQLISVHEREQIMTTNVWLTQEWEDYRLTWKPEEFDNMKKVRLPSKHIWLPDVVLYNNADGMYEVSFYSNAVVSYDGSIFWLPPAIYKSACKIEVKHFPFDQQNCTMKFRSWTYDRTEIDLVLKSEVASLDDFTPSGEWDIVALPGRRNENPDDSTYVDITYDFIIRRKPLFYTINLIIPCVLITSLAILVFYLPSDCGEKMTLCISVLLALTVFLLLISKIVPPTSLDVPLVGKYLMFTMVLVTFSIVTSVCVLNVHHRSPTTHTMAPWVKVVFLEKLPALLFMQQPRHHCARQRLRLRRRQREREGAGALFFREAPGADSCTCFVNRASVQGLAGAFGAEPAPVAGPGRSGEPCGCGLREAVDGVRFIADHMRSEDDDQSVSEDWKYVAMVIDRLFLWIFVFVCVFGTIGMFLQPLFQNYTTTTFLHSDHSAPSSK
Assay: Binding at human α4β2 subtype (Table 1)

{"columns": ["COMPOUND", "Ki (µM)"],
 "data": [
  ["COc1cc(C(=O)N2C[C@@H]3CN[C@@H](C3)C2)on1", 0.0954],
  ["O=C(c1cc(Br)no1)N1CC2CNCC1C2 (stereo not shown)", 0.0143],
  ["Cc1cc(C(=O)N2C[C@@H]3CN[C@@H](C3)C2)on1", 0.0761],
  ["Cc1ccoc1C(=O)N1CC2CNCC1C2 (stereo not shown)", 0.0952]
]}

###

Biological target: α4β2 nAChR Subtype (Rattus norvegicus, UniProt P09483+P12390)
Construct: The cerebral cortex was removed and placed in 20 volumes (weight:volume) of ice-cold preparative buffer; from tissue; host or cells: rat cerebral cortex membranes
Sequence (P09483 31-630): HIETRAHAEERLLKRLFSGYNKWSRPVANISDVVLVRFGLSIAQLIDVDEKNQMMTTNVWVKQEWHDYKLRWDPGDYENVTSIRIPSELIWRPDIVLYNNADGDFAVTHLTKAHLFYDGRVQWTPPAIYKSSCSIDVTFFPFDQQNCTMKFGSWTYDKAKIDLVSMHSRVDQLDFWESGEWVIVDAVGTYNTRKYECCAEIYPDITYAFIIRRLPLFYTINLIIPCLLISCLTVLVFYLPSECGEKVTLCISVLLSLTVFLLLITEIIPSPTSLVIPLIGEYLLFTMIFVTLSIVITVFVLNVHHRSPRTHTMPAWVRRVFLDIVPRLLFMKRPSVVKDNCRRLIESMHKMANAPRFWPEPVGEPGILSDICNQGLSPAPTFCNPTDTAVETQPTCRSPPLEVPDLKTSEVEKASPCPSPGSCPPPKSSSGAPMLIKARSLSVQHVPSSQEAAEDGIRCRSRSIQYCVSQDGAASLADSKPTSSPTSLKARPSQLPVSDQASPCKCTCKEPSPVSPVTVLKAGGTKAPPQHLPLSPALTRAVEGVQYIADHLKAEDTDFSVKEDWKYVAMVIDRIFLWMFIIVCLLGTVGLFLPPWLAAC
Sequence (P12390 25-500): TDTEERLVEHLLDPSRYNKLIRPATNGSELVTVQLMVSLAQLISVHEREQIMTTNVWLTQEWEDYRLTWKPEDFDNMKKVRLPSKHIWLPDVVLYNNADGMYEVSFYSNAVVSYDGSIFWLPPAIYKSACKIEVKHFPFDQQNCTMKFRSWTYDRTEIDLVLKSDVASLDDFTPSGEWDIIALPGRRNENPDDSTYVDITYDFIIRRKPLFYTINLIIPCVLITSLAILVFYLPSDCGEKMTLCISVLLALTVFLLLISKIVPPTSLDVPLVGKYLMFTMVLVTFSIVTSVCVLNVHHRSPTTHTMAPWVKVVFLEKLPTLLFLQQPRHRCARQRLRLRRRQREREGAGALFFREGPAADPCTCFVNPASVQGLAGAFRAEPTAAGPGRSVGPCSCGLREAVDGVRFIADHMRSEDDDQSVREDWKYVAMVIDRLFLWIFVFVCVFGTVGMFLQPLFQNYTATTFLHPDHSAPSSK
Assay: Radioligand binding ([3H]nicotine) at rat α4β2 nAChR subtype, rat cerebral cortex membranes
Details: [3H]nicotine 5 nM, rat cortex; read-out: Rat α4β2 Ki
# condition met = Ki below 200 nM (exclusive); condition not met = Ki at/above 200 nM

{"columns": ["COMPOUND", "ASSAY TARGET", "CLASS NAME"],
 "data": [
  ["Cc1nocc1C(=O)N1CC2CCNCC2C1 (stereo not shown)", "α4β2 nAChR Subtype (Rattus norvegicus, UniProt P09483+P12390)", "condition not met"],
  ["Cc1nocc1C(=O)N1CC2CCNC2C1 (stereo not shown)", "α4β2 nAChR Subtype (Rattus norvegicus, UniProt P09483+P12390)", "condition not met"],
  ["COc1cc(C(=O)N2C[C@@H]3CN[C@@H](C3)C2)on1", "α4β2 nAChR Subtype (Rattus norvegicus, UniProt P09483+P12390)", "condition not met"],
  ["O=C(c1cc(Br)no1)N1CC2CNCC1C2 (stereo not shown)", "α4β2 nAChR Subtype (Rattus norvegicus, UniProt P09483+P12390)", "condition met"],
  ["Cc1cc(C(=O)N2C[C@@H]3CN[C@@H](C3)C2)on1", "α4β2 nAChR Subtype (Rattus norvegicus, UniProt P09483+P12390)", "condition met"],
  ["Cc1ccoc1C(=O)N1CC2CNCC1C2 (stereo not shown)", "α4β2 nAChR Subtype (Rattus norvegicus, UniProt P09483+P12390)", "condition met"],
  ["O=C(c1ccco1)N1CC2CCNC2C1 (stereo not shown)", "α4β2 nAChR Subtype (Rattus norvegicus, UniProt P09483+P12390)", "condition not met"]
]}
